- Tested on: NS5A chimeric genotype 1b Con1 replicon with genotype 3a S52 strain NS5A gene
- protocolSummary: Replicon assay, genotype 3a NS5A chimera
- Format: cell-based, HCV
- particulars: Hepatitis C virus, read-out: 3a (s) (nM), genotype 3a NS5A chimeric replicon, stable replicon cells (s)
Classes (EC50): lower = under 0.07 nM, middle = from 0.07 nM up to 0.2 nM, upper = 0.2 nM and over

Example entries begin here.
COC(=O)N[C@H](C(=O)N1[C@@H](C)CC[C@H]1c1nc(C2CC2)c(-c2ccc3c(c2)COc2cc4c(ccc5nc([C@@H]6CC[C@H](C)N6C(=O)[C@@H](NC(=O)OC)[C@@H](C)OC)[nH]c54)cc2-3)[nH]1)[C@@H](C)OC ... middle
COC(=O)N[C@H](C(=O)N1[C@@H](C)CC[C@H]1c1ncc(-c2ccc3c(c2)COc2cc4c(ccc5nc([C@@H]6CC[C@H](C)N6C(=O)[C@@H](NC(=O)OC)[C@H](C)OC)[nH]c54)cc2-3)[nH]1)C(C)C ... middle
COC(=O)N[C@H](C(=O)N1[C@H](c2ncc(-c3ccc4c(c3)COc3cc5c(ccc6nc([C@@H]7C[C@@H]8CCC[C@@H]8N7C(=O)[C@@H](NC(=O)OC)C7CCOCC7)[nH]c65)cc3-4)[nH]2)C[C@@H]2CCC[C@@H]21)C(C)C ... lower
CC[C@H]1C[C@@H](c2nc3ccc4cc5c(cc4c3[nH]2)OCc2cc(-c3cnc([C@@H]4CC[C@H](C)N4C(=O)[C@@H](NC(=O)OC)C(C)C)[nH]3)ccc2-5)N(C(=O)[C@@H](NC(=O)OC)C(C)C)C1 ... middle
COC(=O)N[C@H](C(=O)N1[C@@H](C)CC[C@H]1c1nc2ccc3cc4c(cc3c2[nH]1)OCc1cc(-c2cnc([C@@H]3C[C@H](C)CN3C(=O)[C@@H](NC(=O)OC)C3CCOCC3)[nH]2)ccc1-4)C(C)C ... middle
CC[C@H]1C[C@@H](c2ncc(-c3ccc4c(c3)COc3cc5c(ccc6nc([C@@H]7CC[C@H](C)N7C(=O)[C@@H](NC(=O)OC)C(C)C)[nH]c65)cc3-4)[nH]2)N(C(=O)[C@@H](NC(=O)OC)C(C)C)C1 ... middle
COC(=O)N[C@H](C(=O)N1[C@@H](C)CC[C@H]1c1ncc(-c2ccc3c(c2)COc2cc4c(ccc5nc([C@@H]6CC[C@H](C)N6C(=O)[C@@H](NC(=O)OC)[C@H](C)OC)[nH]c54)cc2-3)[nH]1)[C@H](C)OC ... upper
CC[C@H]1CC[C@@H](c2ncc(-c3ccc4c(c3)COc3cc5c(ccc6nc([C@@H]7CC[C@H](C)N7C(=O)[C@@H](NC(=O)OC)[C@@H](C)OC)[nH]c65)cc3-4)[nH]2)N1C(=O)[C@H](C)NC(=O)OC ... upper

State the band of [2H]C([2H])([2H])C([2H])(C([2H])([2H])[2H])[C@]([2H])(NC(=O)OC)C(=O)N1[C@@H](C)CC[C@H]1c1ncc(-c2ccc3c(c2)COc2cc4c(ccc5nc([C@@H]6CC[C@H](C)N6C(=O)[C@@]([2H])(NC(=O)OC)C([2H])(C([2H])([2H])[2H])C([2H])([2H])[2H])[nH]c54)cc2-3)[nH]1 lower

State the band of COC(=O)N[C@H](C(=O)N1[C@@H](C)CC[C@H]1c1ncc(-c2ccc3c(c2)COc2cc4c(ccc5nc([C@@H]6CC[C@H](C)N6C(=O)[C@@H](NC(=O)OC(C)(C)C)C(C)(C)O)[nH]c54)cc2-3)[nH]1)C(C)C upper

State the band of COC[C@H]1C[C@@H](c2ncc(-c3ccc4c(c3)COc3cc5c(ccc6nc([C@@H]7C[C@H](COC)CN7C(=O)[C@@H](NC(=O)OC)[C@@H](C)OC)[nH]c65)cc3-4)[nH]2)N(C(=O)[C@@H](NC(=O)OC)[C@@H](C)OC)C1 upper

State the band of COC(=O)N[C@H](C(=O)N1[C@@H](C)CC[C@H]1c1ncc(-c2ccc3c(c2)COc2cc4c(ccc5nc([C@@H]6CC[C@H](C)N6C(=O)[C@@H](NC(=O)OC)C6CCCCC6)[nH]c54)cc2-3)[nH]1)C(C)C middle

State the band of COC(=O)N[C@H](C(=O)N1C(c2ncc(-c3ccc4c(c3)COc3cc5c(ccc6nc(C7C[C@H](C)CN7C(=O)[C@@H](NC(=O)OC)C(C)(C)C)[nH]c65)cc3-4)[nH]2)CC[C@@H]1C)C(C)C (stereo partly shown) upper

State the band of CC[C@H]1CC[C@@H](c2ncc(-c3ccc4c(c3)COc3cc5c(ccc6nc([C@@H]7CC[C@H](C)N7C(=O)[C@@H](NC(=O)OC)[C@@H](C)OC)[nH]c65)cc3-4)[nH]2)N1C(=O)[C@@H](NC(=O)OC)C1CCOCC1 lower
